Values were extracted from the Human Domainome abundance scans (Beltran et al. 2025).

B1: Protein S100-G, residues 1 to 79; numbered along this chain, P02633 (parent)
chain: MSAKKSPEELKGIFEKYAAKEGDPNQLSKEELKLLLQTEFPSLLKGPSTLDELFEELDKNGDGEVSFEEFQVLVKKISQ

- Variants of: B1
- assay-notes: abundance fitness (aPCA) (normalised: wild type 0, dead -1); higher = more abundant; growth selection in yeast, the domain comes from the species named
- measurement-conditions: Bos taurus
I'd appreciate it if you could supply abundance fitness values for the items below.
The answer should be a number; do not append a unit.

Exam item: Would you kindly share the measured abundance fitness for MSAKKSPEELKGIFEKYAAKEGDPNQLSKEELKLLLQTEFPSLLKGPSTLDELFEELDKNGVGEVSFEEFQVLVKKISQ [D62V] ?
Marked response: -0.027

Exam item: Would you kindly share the measured abundance fitness for MSAKKSPEELKGIFEKYAAKEGDPNQLSKEELKLLLQTEFPSLLKGPSTLDELFEELDKNGDGEVSFEQFQVLVKKISQ [E69Q] ?
Marked response: 0.016

Exam item: Would you kindly share the measured abundance fitness for MSAKKSPEELKGIFEKYAAKEGDPNQLSKEELKLLTQTEFPSLLKGPSTLDELFEELDKNGDGEVSFEEFQVLVKKISQ [L36T] ?
Marked response: -0.203

Exam item: Would you kindly share the measured abundance fitness for ISAKKSPEELKGIFEKYAAKEGDPNQLSKEELKLLLQTEFPSLLKGPSTLDELFEELDKNGDGEVSFEEFQVLVKKISQ [M1I] ?
Marked response: 0.027

Exam item: Would you kindly share the measured abundance fitness for MSAKKSPEELKGIFEKYAAKEGDPNQLSKGELKLLLQTEFPSLLKGPSTLDELFEELDKNGDGEVSFEEFQVLVKKISQ [E30G] ?
Marked response: -0.057

Exam item: Would you kindly share the measured abundance fitness for MSAKKSPEELKGIFEKYAAKEGDPNQLSKEELKLLLQTEFPSLLKGPSTLDELFEELDKNGDGEVSFEEFQVKVKKISQ [L73K] ?
Marked response: -0.413

Exam item: Would you kindly share the measured abundance fitness for MSAKKSPEELKGIFEKYAAKEGDVNQLSKEELKLLLQTEFPSLLKGPSTLDELFEELDKNGDGEVSFEEFQVLVKKISQ [P24V] ?
Marked response: -0.009

Exam item: Would you kindly share the measured abundance fitness for MSAKKSPEELKGIFEKYAAKEGDPNQLSKEELKLLLQTEFPSLLKGPSTLDWLFEELDKNGDGEVSFEEFQVLVKKISQ [E52W] ?
Marked response: -0.084

Exam item: Would you kindly share the measured abundance fitness for MSAKKSPEELKGIFEKYAAKEGDPNQLSKEELKLLLQTEFPSLLKGPSTLDELFEELDKAGDGEVSFEEFQVLVKKISQ [N60A] ?
Marked response: 0.101

Exam item: Would you kindly share the measured abundance fitness for MSAKKSPEELKGIFEKYAAKEGDPNQLSKEELKLLLQTEFPSLLKGPSTLDELFEELDKNGDGEVSWEEFQVLVKKISQ [F67W] ?
Marked response: -0.038

Exam item: Would you kindly share the measured abundance fitness for MSAKKSPEELKGIFEKYAAKEGDPNQLSKEELKLLLQTEFPSLLKGPSTLDELFEELDKNGDGEVSFEEFQVLVKKGSQ [I77G] ?
Marked response: -0.111

Exam item: Would you kindly share the measured abundance fitness for MSAKKSPEELKGIFHKYAAKEGDPNQLSKEELKLLLQTEFPSLLKGPSTLDELFEELDKNGDGEVSFEEFQVLVKKISQ [E15H] ?
Marked response: 0.018

Exam item: Would you kindly share the measured abundance fitness for MSAKKSPEELKGIFEKYARKEGDPNQLSKEELKLLLQTEFPSLLKGPSTLDELFEELDKNGDGEVSFEEFQVLVKKISQ [A19R] ?
Marked response: -0.073

Exam item: Would you kindly share the measured abundance fitness for MSAKKSPEELKGMFEKYAAKEGDPNQLSKEELKLLLQTEFPSLLKGPSTLDELFEELDKNGDGEVSFEEFQVLVKKISQ [I13M] ?
Marked response: 0.053

Exam item: Would you kindly share the measured abundance fitness for MSAKKSPEELKGIFEKYIAKEGDPNQLSKEELKLLLQTEFPSLLKGPSTLDELFEELDKNGDGEVSFEEFQVLVKKISQ [A18I] ?
Marked response: -0.248

Exam item: Would you kindly share the measured abundance fitness for MSAKKSPEELKGIFEKYAAKEGDPNQLSKEELKLLLQTEFPSLLKGPSTLDELFEELGKNGDGEVSFEEFQVLVKKISQ [D58G] ?
Marked response: 0.007

Exam item: Would you kindly share the measured abundance fitness for MSAKKSPEELKGIFEKYAAKEGDPNQLSKEELKLLLQTEFPSLLKGPSTLDELFEELDKNGDGEVSFEEFQVLVYKISQ [K75Y] ?
Marked response: -0.173

Exam item: Would you kindly share the measured abundance fitness for MSAKKSPEELKGIFEKYAAKEGDPNQLSKEELKLLLQTEFPSLLRGPSTLDELFEELDKNGDGEVSFEEFQVLVKKISQ [K45R] ?
Marked response: 0.002

Exam item: Would you kindly share the measured abundance fitness for MSAKKSPEELKGIFEKYAAKEGDPNQLSKEELKLLLQTEFPSLLKGPSTLDELFEGLDKNGDGEVSFEEFQVLVKKISQ [E56G] ?
Marked response: -0.006

Exam item: Would you kindly share the measured abundance fitness for MSAKKSPEELKGIFEKYAAKEGGPNQLSKEELKLLLQTEFPSLLKGPSTLDELFEELDKNGDGEVSFEEFQVLVKKISQ [D23G] ?
Marked response: -0.091

Exam item: Would you kindly share the measured abundance fitness for MSAKKSPEELKGIFEKYAAKEGDPNCLSKEELKLLLQTEFPSLLKGPSTLDELFEELDKNGDGEVSFEEFQVLVKKISQ [Q26C] ?
Marked response: -0.082

Exam item: Would you kindly share the measured abundance fitness for MSAKKSPEELKGIFEKYAAKEGDPNILSKEELKLLLQTEFPSLLKGPSTLDELFEELDKNGDGEVSFEEFQVLVKKISQ [Q26I] ?
Marked response: 0.003

Exam item: Would you kindly share the measured abundance fitness for MSAKKSPEELKGIFEKYAAKEGDPNQLSKEELKLLLRTEFPSLLKGPSTLDELFEELDKNGDGEVSFEEFQVLVKKISQ [Q37R] ?
Marked response: 0.005

Exam item: Would you kindly share the measured abundance fitness for MSAKKSPEELKGIFEKYAAKEGDPNQLSKEELKLLLQTEFPSLLKGSSTLDELFEELDKNGDGEVSFEEFQVLVKKISQ [P47S] ?
Marked response: 0.073

Exam item: Would you kindly share the measured abundance fitness for MSAKKSPEELKGIFEKYAAKEGDPNQLSKEGLKLLLQTEFPSLLKGPSTLDELFEELDKNGDGEVSFEEFQVLVKKISQ [E31G] ?
Marked response: 0.015

Exam item: Would you kindly share the measured abundance fitness for MSAKKSPEELKGIFEKYAAKEGDPNQLSKEELKLLLQTEFPSLLKGPSTLDELFEELDKNGDGEVSFPEFQVLVKKISQ [E68P] ?
Marked response: 0.009

Exam item: Would you kindly share the measured abundance fitness for MSAKKSPEELYGIFEKYAAKEGDPNQLSKEELKLLLQTEFPSLLKGPSTLDELFEELDKNGDGEVSFEEFQVLVKKISQ [K11Y] ?
Marked response: -0.124

Exam item: Would you kindly share the measured abundance fitness for MSAKKSPEELKGIFEKYAAKEGDPNQLSKEELKLLLQTEFPSLLKGPSTLDELFEELDKNGDGEVSFEEEQVLVKKISQ [F70E] ?
Marked response: -1.25

Exam item: Would you kindly share the measured abundance fitness for MSAKKSPEELKGIFEKYAAKEGDPNNLSKEELKLLLQTEFPSLLKGPSTLDELFEELDKNGDGEVSFEEFQVLVKKISQ [Q26N] ?
Marked response: -0.048

Exam item: Would you kindly share the measured abundance fitness for MSAKKSPEELKGIFEKYAAKEGDPNQLSLEELKLLLQTEFPSLLKGPSTLDELFEELDKNGDGEVSFEEFQVLVKKISQ [K29L] ?
Marked response: -0.008

Exam item: Would you kindly share the measured abundance fitness for MSAKKSPEELKGIFEKYAAKEGDPNQLSKEELKLLLQTEFPSLLKGPSTLDELFEELDKFGDGEVSFEEFQVLVKKISQ [N60F] ?
Marked response: -0.156

Exam item: Would you kindly share the measured abundance fitness for MSAKKSPEELKGIFEKYAAKEGDPNQLSKKELKLLLQTEFPSLLKGPSTLDELFEELDKNGDGEVSFEEFQVLVKKISQ [E30K] ?
Marked response: -0.023

Exam item: Would you kindly share the measured abundance fitness for MSAKKSPEELKWIFEKYAAKEGDPNQLSKEELKLLLQTEFPSLLKGPSTLDELFEELDKNGDGEVSFEEFQVLVKKISQ [G12W] ?
Marked response: -0.082

Exam item: Would you kindly share the measured abundance fitness for MSAKKSPEELKGIFEKYLAKEGDPNQLSKEELKLLLQTEFPSLLKGPSTLDELFEELDKNGDGEVSFEEFQVLVKKISQ [A18L] ?
Marked response: -0.242

Exam item: Would you kindly share the measured abundance fitness for MSAKKSPEELKGIFEKYAAKEGDPNQLSKEELKLLLQTEFPSLLKGPSTLDELFEELDKNGDGEVSFEEFQVLGKKISQ [V74G] ?
Marked response: -0.023

Exam item: Would you kindly share the measured abundance fitness for MSAKKSPEELKGIFEKYAAKEGDPNQLSKEELKLCLQTEFPSLLKGPSTLDELFEELDKNGDGEVSFEEFQVLVKKISQ [L35C] ?
Marked response: -0.064

Exam item: Would you kindly share the measured abundance fitness for MSAKKSPEELKGIFEKYAAKEGDPSQLSKEELKLLLQTEFPSLLKGPSTLDELFEELDKNGDGEVSFEEFQVLVKKISQ [N25S] ?
Marked response: -0.027

Exam item: Would you kindly share the measured abundance fitness for MSAKKSPEELKGIFEKYAAKEGDPNQLSKEELKLLLQTGFPSLLKGPSTLDELFEELDKNGDGEVSFEEFQVLVKKISQ [E39G] ?
Marked response: -0.809

Exam item: Would you kindly share the measured abundance fitness for MSAKKSPEELKGIFEKYAAKEGDPNQLSKEELKLLLQTEFPSLLKGPSTLDELFEELDKNGDGEVSFEEFQVLEKKISQ [V74E] ?
Marked response: -0.004

Exam item: Would you kindly share the measured abundance fitness for MSAKKSPEELKGIFEKYAAKEGDPNQLSKEELKLLLQTEFPSLLKGPSTLDELFEELVKNGDGEVSFEEFQVLVKKISQ [D58V] ?
Marked response: -0.058

Exam item: Would you kindly share the measured abundance fitness for MSAKKSPEELKGIFEKYAAWEGDPNQLSKEELKLLLQTEFPSLLKGPSTLDELFEELDKNGDGEVSFEEFQVLVKKISQ [K20W] ?
Marked response: -0.181

Exam item: Would you kindly share the measured abundance fitness for MSAKKSPEELKNIFEKYAAKEGDPNQLSKEELKLLLQTEFPSLLKGPSTLDELFEELDKNGDGEVSFEEFQVLVKKISQ [G12N] ?
Marked response: 0.001

Exam item: Would you kindly share the measured abundance fitness for MSAKKSPEELKGIFEKYAAKEGDPNQLSKEELKLLLQTEFPSLLKGPSTLDELFEELDKNGDGWVSFEEFQVLVKKISQ [E64W] ?
Marked response: 0.155

Exam item: Would you kindly share the measured abundance fitness for MSAKKSPEELKGIFEKYAAKEGDPNQLSKEELKLLLQTEFPSLLKGPSTLDELFEELDKNGDGEDSFEEFQVLVKKISQ [V65D] ?
Marked response: -0.86

Exam item: Would you kindly share the measured abundance fitness for MSAKKSPEELKGIFEKYAAKEGDPNQLSKEELKLLLQTEFPSLLKGPSTLDELFEELDKNGDGEVPFEEFQVLVKKISQ [S66P] ?
Marked response: -0.107

Exam item: Would you kindly share the measured abundance fitness for MSAKKSPEELKGIFEKYAAKEGDPNQLSKEELKLLCQTEFPSLLKGPSTLDELFEELDKNGDGEVSFEEFQVLVKKISQ [L36C] ?
Marked response: -0.099
